- experimental-system: mGluR2 receptor (metabotropic glutamate receptor 2) (Homo sapiens)
- Construct: expressed in transfected cells
- Sequence (Q14416 19-872, species assumed): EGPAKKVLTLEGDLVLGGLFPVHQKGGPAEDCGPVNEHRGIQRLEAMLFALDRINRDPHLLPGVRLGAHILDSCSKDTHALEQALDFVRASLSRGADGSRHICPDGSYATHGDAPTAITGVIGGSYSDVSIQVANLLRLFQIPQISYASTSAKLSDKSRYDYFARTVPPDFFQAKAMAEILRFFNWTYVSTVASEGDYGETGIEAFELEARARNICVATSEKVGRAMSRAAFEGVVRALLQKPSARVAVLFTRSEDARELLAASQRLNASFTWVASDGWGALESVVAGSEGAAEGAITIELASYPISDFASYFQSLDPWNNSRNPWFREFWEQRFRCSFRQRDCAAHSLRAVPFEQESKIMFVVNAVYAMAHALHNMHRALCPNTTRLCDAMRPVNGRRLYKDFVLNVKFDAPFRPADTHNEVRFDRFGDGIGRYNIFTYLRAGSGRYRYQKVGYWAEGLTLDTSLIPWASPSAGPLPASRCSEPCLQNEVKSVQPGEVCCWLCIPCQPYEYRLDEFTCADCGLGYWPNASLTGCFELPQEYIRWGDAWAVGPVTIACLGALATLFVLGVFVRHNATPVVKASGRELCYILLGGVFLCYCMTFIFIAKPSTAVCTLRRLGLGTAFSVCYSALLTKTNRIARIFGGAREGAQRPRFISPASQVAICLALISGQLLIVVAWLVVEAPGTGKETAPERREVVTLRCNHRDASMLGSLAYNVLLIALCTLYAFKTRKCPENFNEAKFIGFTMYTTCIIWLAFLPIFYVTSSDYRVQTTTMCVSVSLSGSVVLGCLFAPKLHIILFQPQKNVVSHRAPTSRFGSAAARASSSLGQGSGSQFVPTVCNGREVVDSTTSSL
- test: mGluR2 Potentiator Screen, FLIPR, EC10-EC20 glutamate challenge
- Format: cell-based
- Procedure: Procedure for mGluR2 Potentiator Screen NLB methods EC10-EC20 Challenge Cell Culture and Plating: Cells used for this screen are HEK cells stably transfected with the mGluR2 receptor (metabotropic glutamate receptor 2) and the Gα15 G protein. […] Results are analyzed by dividing the peak fluorescent value of the FLIPR response by the […] to achieve a ratio response. The ratios are then analyzed by curve fitting programs. […]
Below is a list of entries, each paired with its recorded pEC50 value.
Please treat pEC50 as minus the base-10 logarithm of the molar concentration.

The examples below pair each entry with its known result.
{"compound": "C[C@@H]1CN(Cc2nc3nccc4c3n2CCC4)CC[C@@H]1c1ccc(F)c(Cl)c1 (relative stereo)", "recorded-measurement": 6.87}
{"compound": "C[C@@H]1CN(Cc2nc3cnccc3n2C)CC[C@@H]1c1ccc(Cl)cc1Cl (relative stereo)", "recorded-measurement": 7.05}
{"compound": "C[C@@H]1CN(Cc2nc3ncccc3n2C)CC[C@@H]1c1ccc(F)c(C(F)(F)F)c1 (relative stereo)", "recorded-measurement": 6.89}

For the next question, use this compound.
Annotate the compound C[C@@H]1CN(Cc2nc3cnccc3n2C)CC[C@@H]1c1ccc(OC(F)(F)F)cc1 (single isomer, unassigned) [compound 176] with its measured pEC50.
7.00
